MEASUREMENT_PROTOCOL: Ivosidenib plasma PK after single and multiple 500 mg QD doses (dose expansion)
Format: in vivo, human
CONDITION_LABEL: human, plasma, oral, 500 mg, expansion overall, cycle 2 day 1, median (minimum; maximum)
REPORTED_METRIC: Tmax (h)
One number for each entry, in h.

Problem: Form field: reported Tmax of `N#Cc1ccnc(N2C(=O)CC[C@H]2C(=O)N(c2cncc(F)c2)[C@H](C(=O)NC2CC(F)(F)C2)c2ccccc2Cl)c1`
Solution: 2.14

----------
MEASUREMENT_PROTOCOL: Ivosidenib plasma PK after single and multiple 500 mg QD doses (dose expansion)
Assay type: in vivo, human
CONDITION_LABEL: human, plasma, oral, 500 mg, expansion enhancing glioma, cycle 1 day 1, geometric mean (geometric CV%), read-out: AUC0-8hr
REPORTED_METRIC: AUC(0-t) (ng·h/mL)
One number for each entry, in ng·h/mL.

Problem: Form field: reported AUC(0-t) of N#Cc1ccnc(N2C(=O)CC[C@H]2C(=O)N(c2cncc(F)c2)[C@H](C(=O)NC2CC(F)(F)C2)c2ccccc2Cl)c1 [ivosidenib]
Solution: 16000
